target: Human immunodeficiency virus type 1 integrase (Human immunodeficiency virus 1); assay: Inhibition of HIV1 recombinant integrase 3'-processing activity expressed in Escherichia coli after 60 mins using [32P]-labeled oligonucleotide as a substrate by densitometric analysis in presence of cofactor magnesium
Sequence (Q7ZJM1 whole entry): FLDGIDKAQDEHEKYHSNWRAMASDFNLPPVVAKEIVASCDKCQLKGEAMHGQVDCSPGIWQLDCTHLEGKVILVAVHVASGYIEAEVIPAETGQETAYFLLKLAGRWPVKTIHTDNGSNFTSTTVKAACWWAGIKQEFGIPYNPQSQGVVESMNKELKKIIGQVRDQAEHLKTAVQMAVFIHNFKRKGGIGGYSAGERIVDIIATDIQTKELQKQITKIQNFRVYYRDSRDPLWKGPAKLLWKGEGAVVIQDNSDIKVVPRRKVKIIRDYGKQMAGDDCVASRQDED
reported-endpoint: IC50

smiles-input: O=C1c2c(c3n(c(=O)c2O)CCCC3)C(=O)N1Cc1ccc(F)c(Cl)c1
reported-endpoint: IC50
result: > 111 µM

---

Recorded pEC50, one value per entry.
test system: Human immunodeficiency virus 1; assay: Antiviral activity against HIV1 harboring wild-type integrase infected in human HOS cells; format: functional, organism-based; conditions: Human immunodeficiency virus 1, HOS
pEC50: −log10 of the molar value.

smiles-input: O=C1c2c(c3n(c(=O)c2O)CCCC3)C(=O)N1Cc1ccc(F)c(Cl)c1
experimental-target: Human immunodeficiency virus 1
pEC50: 4.21
--
smiles-input: Cc1nnc(C(=O)NC(C)(C)c2nc(C(=O)NCc3ccc(F)cc3)c(O)c(=O)n2C)o1
experimental-target: Human immunodeficiency virus 1
pEC50: 8.40
